Data origin, for the record: patent US9505781B2

Here, each record is paired with measured IC50 data.
Target: menin-MLL interaction (Homo sapiens, UniProt O00255)
Sequence (O00255 1-610): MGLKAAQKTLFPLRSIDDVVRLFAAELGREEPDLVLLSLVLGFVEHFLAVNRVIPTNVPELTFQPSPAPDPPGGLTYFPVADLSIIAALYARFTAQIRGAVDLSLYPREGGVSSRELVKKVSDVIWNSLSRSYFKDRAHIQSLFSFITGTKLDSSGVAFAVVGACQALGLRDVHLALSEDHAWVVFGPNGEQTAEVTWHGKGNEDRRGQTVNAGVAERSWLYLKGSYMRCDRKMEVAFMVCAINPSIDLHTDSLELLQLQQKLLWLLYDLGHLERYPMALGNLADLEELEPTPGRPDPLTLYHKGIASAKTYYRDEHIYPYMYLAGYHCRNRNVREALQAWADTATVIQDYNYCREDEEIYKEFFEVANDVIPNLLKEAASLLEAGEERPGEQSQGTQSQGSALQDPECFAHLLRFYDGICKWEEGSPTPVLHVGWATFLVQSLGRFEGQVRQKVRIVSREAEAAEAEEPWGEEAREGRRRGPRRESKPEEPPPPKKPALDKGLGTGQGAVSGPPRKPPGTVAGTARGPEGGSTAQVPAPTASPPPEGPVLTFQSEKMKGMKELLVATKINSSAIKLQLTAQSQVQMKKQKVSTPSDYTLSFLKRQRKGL
Assay: biochemical

compound: N#Cc1cc2c(CN)c(CN3CCC(Nc4ncnc5sc(CC(F)(F)F)cc45)CC3)ccc2[nH]1
attribute.measured: IC50
result.value: < 0.1 µM

Note: attention shifts to another entry.
### Prompt Which measured IC50 value corresponds to Nc1ccc(CC(=O)N2CCN(c3ncnc4sc(CC(F)(F)F)cc34)CC2)cc1 ?
### Response 0.1 to 0.5 µM

###

Here, each record is paired with measured pIC50 data.
Biological target: menin-MLL interaction (Homo sapiens)
Sequence (O00255 1-610): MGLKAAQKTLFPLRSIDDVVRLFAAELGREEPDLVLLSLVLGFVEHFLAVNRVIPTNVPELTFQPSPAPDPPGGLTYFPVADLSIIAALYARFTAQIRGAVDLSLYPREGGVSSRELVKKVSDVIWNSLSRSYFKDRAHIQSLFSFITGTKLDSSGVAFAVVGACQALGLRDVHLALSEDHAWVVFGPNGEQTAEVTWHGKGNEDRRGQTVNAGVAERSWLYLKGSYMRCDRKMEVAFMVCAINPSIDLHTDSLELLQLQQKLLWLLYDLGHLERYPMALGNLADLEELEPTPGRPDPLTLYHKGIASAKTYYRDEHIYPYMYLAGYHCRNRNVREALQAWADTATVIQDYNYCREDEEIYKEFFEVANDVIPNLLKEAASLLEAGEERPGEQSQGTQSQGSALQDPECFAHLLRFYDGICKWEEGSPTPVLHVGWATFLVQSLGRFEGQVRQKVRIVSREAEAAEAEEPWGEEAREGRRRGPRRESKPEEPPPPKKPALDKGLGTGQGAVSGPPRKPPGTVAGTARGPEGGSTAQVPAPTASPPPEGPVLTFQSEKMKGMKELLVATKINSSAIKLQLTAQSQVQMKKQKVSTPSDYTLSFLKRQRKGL
Assay: biochemical
pIC50: −log10 of the molar value.

compound: O=CN1CCCC1CN[C@H]1CN(Cc2ccccc2)CC[C@@H]1Nc1ncnc2sc(CC(F)(F)F)cc12 (some centres unmarked) [Compound 170]
attribute.measured: pIC50
result.value: 6.30 to 7.00
//
compound: OCC(O)CN(c1ncnc2sc(CC(F)(F)F)cc12)C1CCN(Cc2ccccc2)CC1 (centres unmarked) [Compound 128]
attribute.measured: pIC50
result.value: 6.30 to 7.00
//
compound: CC(c1cc2c(N3CCN(C4=NCC(C)(C)S4)CC3)ncnc2s1)C(F)(F)F (centres unmarked) [Compound 38]
attribute.measured: pIC50
result.value: 5.70 to 6.30
//
compound: OCCN(c1ncnc2sc(CC(F)(F)F)cc12)C1CCN(Cc2ccccc2)CC1 [Compound 129]
attribute.measured: pIC50
result.value: 6.30 to 7.00
//
compound: Cc1c(CN2CCC(Nc3ncnc4sc(CC(F)(F)F)cc34)CC2)ccc2c1cc(C#N)n2CCN1CCCCC1 [Compound 329]
attribute.measured: pIC50
result.value: > 7.00
//
compound: N#Cc1cc2c(F)c(CN3CCC(Nc4ncnc5sc(CC(F)(F)F)cc45)CC3)ccc2n1CC(N)=O [Compound 205]
attribute.measured: pIC50
result.value: > 7.00
//
compound: CS(=O)(=O)N(CC1CCCC1)c1ccc(CC(=O)N2CCN(c3ncnc4sc(CC(F)(F)F)cc34)CC2)cc1 [Compound 100]
attribute.measured: pIC50
result.value: 5.70 to 6.30

### Prompt Which measured pIC50 value corresponds to OCc1ccc(CN2CCC(CNc3ncnc4sc(CC(F)(F)F)cc34)CC2)cc1 [Compound 266] ?
### Response 5.70 to 6.30
